# System: MCC-26
# test-method-notes: qHTS assay to identify novel small-molecules to repurpose for Merkel cell carcinoma treatment (AID 1296009); further: nearly all actives have a fitted effect of over 60% in size
# condition-notes: MCC and control cell lines, CellTiter-Glo viability, 72 h; series mostly up to 46 µM
# Text: MCC is a rare and aggressive neuroendocrine skin cancer with limited treatment options. Approximately 80% of MCCs have the Merkel cell polyomavirus (MCPyV) DNA integrated into the host genome (virus-positive: VP-MCC) and viral oncogenes drive oncogenesis. The remaining MCCs are virus-negative (VN-MCC) and are caused by UV mutagenesis. […] Using cell viability as a readout (CellTiter-Glo assay) we found both overlapping and distinct drugs that can be repurposed for the treatment of VP-MCC and VN-MCC. […]
Results filed as inconclusive are left out. Activity calls are given as the source filed them. The call rests on the fitted dose curve; in most records, active means well fitted inhibition curve with a large enough effect; inconclusive means small, poorly fitted or top-dose-only effect; inactive means flat fitted curve, though single readings scatter.
Your response should consist of one outcome taken from active, inactive

Solved entries:
CC(C)NCC(O)COc1cccc2[nH]ccc12 (stereo not drawn) | inactive
O=C1NC(=O)C(c2ccccc2)(c2ccccc2)N1 | inactive

// param item: COc1ccc2c(Oc3ccc(NC(=O)c4c(C)n(CC(C)(C)O)n(-c5ccccc5)c4=O)nc3)ccnc2c1 ; yields the recorded call inactive

// param item: N#Cc1ccc(NC(=O)Nc2ccccc2Br)c2n[nH]nc12 ; yields the recorded call inactive

// param item: CC1CCC(C(=O)N(c2cc(C#CC(C)(C)C)sc2C(=O)O)C2CCC(O)CC2)CC1 (stereo not drawn) ; yields the recorded call inactive
